Values compiled from patent US20110207628A1.

Below, each of the binders is paired with its reported Binding to tubby-N (binding specificity of clonal phage vs. control phage) value.
System: T1, tubby-N (N-terminus of mouse tubby, 1M-242P), GST-free (mouse, UniProt P50586 1-242)
T1 construct: range 1-242; Expressed as GST-tubby-N in E. coli BL21(DE3), GST removed by 3C protease cleavage; also called GST-free tubby-N
T1 sequence (looked up): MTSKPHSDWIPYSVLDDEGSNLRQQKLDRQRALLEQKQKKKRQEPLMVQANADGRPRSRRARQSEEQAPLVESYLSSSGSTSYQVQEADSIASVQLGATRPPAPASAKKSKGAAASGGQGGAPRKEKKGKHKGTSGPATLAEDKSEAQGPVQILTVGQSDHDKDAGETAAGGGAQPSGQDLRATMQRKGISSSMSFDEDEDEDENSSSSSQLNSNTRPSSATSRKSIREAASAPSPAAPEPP
Experiment: clonal phage on immobilized tubby-N, plaque assay
Assay readout: Binding to tubby-N (binding specificity of clonal phage vs. control phage)

Tubby like protein 1 (Tulp1) 125D-243E, phage clone (other, mouse, UniProt Q9Z273 125-243, looked up, range 125-243; For Y2H recloned into pGAD424) DDDEEEEEKKEGKKEKSSLPPKKAPKEREKKAKALGPRGDVGSPDAPRKPLRTKKKEVGEGTKLRKAKKKGPGETDKDPAGSPAALRKEFPAAMFLVGEGGAAEKGVKKKGPPKGSEEE :: ~49 X (fold)
Zinc finger protein 609 (Zfp609) 1M-183E, phage clone (other, mouse, UniProt Q8BZ47 1-183, looked up, range 1-183; Minimal overlap of 2 independent clones; For Y2H recloned into pGAD424) MSLSSGACGGKGVDANPVETYDSGDEWDIGVGNLIIDLDADLEKDQQKLEMSGSKEVGIPAPNAVATLPDNIKFVTPVPGPQGKEGKSKSKRSKSGKDASKPTPGTSLFSPSEGAASKKEVQGRAGDGASAGGLVAAVAPKGSEKAAKASRSVAGSKKEKENSSSKGKKERSEGVGTCSEKDP :: ~53.2 X (fold)
Microtubule-associated protein 7 (Mtap7) 23A-114R, phage clone (other, mouse, UniProt O88735 23-114, looked up, range 23-114; For Y2H recloned into pGAD424) ASDGYKVQEKRTAPSRPTSTVSGQTSNHSGNKPDPPPVLRVDDRQRLARERREEREKQLAARETVWLEREERARQHYERHLEARKKKLEDQR :: ~3.5 X (fold)
CCCTC-binding factor (Ctcf) 136G-400T, phage clone (other, mouse, UniProt Q61164 136-400, looked up, range 136-400; For Y2H recloned into pGAD424) GAYENEVSKEGLAESEPMICHTLPLPEGFQVVKVGANGEVETLEQGELPPQEDSSWQKDPDYQPPAKKTKKTKKSKLRYTEEGKDVDVSVYDFEEEQQEGLLSEVNAEKVVGNMKPPKPTKIKKKGVKKTFQCELCSYTCPRRSNLDRHMKSHTDERPHKCHLCGRAFRTVTLLRNHLNTHTGTRPHKCPDCDMAFVTSGELVRHRRYKHTHEKPFKCSMCDYASVEVSKLKRHIRSHTGERPFQCSLCSYASRDTYKLKRHMRT :: ~117 X (fold)
